B1: library; a variant is named by its letters at N, in order (parent)
chain: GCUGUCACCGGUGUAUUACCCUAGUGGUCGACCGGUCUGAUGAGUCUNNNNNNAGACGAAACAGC

Variants of: B1
Test: normalized RNA/DNA level with ligand (relative to sTRSVctl = 100) (log10 (% of sTRSVctl)); ligand: hypoxanthine (xanthine aptamer); higher = less ribozyme self-cleavage, higher mRNA level
Conditions: ligand concentration (+) RNA-Seq: 5 mM, HEK293T, reporter: mCherry (pCS4076), ligand present: yes
endpointName: normalized RNA/DNA level with ligand (log10)

| variantSpec | valueObserved |
| --- | --- |
| UCGCAC | 1.97 |
| AGGAGA | 1.78 |
| UCGCCG | 2 |
| AACUUG | 1.87 |
| GCCUUU | 1.94 |
| CAAUGG | 1.82 |
| GACCUU | 1.95 |
| GUUCUU | 1.95 |
| CGGUAG | 1.9 |
| UGUCUU | 2.01 |
| CUGUAA | 1.92 |
| GUUAAG | 1.85 |
| CGAUAC | 1.89 |
| GUGCAC | 1.87 |
| GCACUA | 1.94 |
| AAUACG | 1.84 |
| CCGUAA | 1.95 |
| CACUUA | 1.87 |
| CAAGUU | 1.93 |
| UCAGGC | 1.96 |
| AGCCAC | 1.93 |
| CUUAAC | 1.89 |
| UGUACA | 1.92 |
| GAUAGC | 1.87 |
| UCAAAU | 1.92 |
| AACAAG | 1.85 |
| GAUAUU | 1.9 |
| AAGGAC | 1.91 |
| GCCAAG | 1.83 |
| UCUCGA | 1.93 |
| CUCAAC | 1.98 |
| UGGAAG | 1.87 |
| GGACGA | 1.9 |
| AACGGU | 1.88 |
| AUCUUU | 1.99 |
| AAUUGA | 1.9 |
| CGCAGG | 1.82 |
| CAGGAA | 1.96 |
| AAGUGG | 1.57 |
| CCAUUC | 2.02 |
| CUCCAG | 1.89 |
| UACGCA | 1.92 |
| AAACGA | 1.91 |
| CUGCAA | 1.93 |
| AUAACC | 1.94 |
| CGUAUC | 1.93 |
| AGACAG | 1.82 |
| CUUACC | 1.91 |
| CACUAU | 1.91 |
| CUGCUC | 1.96 |
| UCGACA | 1.93 |
| UUGGGG | 1.91 |
| GAACUG | 1.87 |
| CAACUG | 1.9 |
| CGUUAG | 1.94 |
| CCUCUG | 1.96 |
| GCGCAC | 1.8 |
| UAAACG | 1.9 |
| GAUACA | 1.93 |
| GUAGGC | 1.87 |
| AACCAA | 1.91 |
| CAGACG | 1.98 |
| UCUGGU | 1.96 |
| UUUAUU | 1.93 |
| UCGUUG | 1.98 |
| CUUUUC | 1.95 |
| UCGCAA | 1.9 |
| UGCUUU | 1.96 |
| GGAUCU | 1.95 |
| UGUAAG | 1.9 |
| AGUACC | 1.94 |
| GAUGUU | 1.91 |
| UAUUCC | 1.95 |
| UUCAAA | 1.95 |
| GAAAUC | 1.97 |
| GGAGGG | 1.88 |

Ref: the supplement of paper PMC6757056
